Molecular target: Glucagon-like peptide 1 receptor (Homo sapiens)
Test: qHTS of GLP-1 Receptor Inverse Agonists (Inhibition Mode); also: nearly all actives have a fitted effect of over 55% in size
Settings: HEK293 GLP-1R CRE-luciferase, luminescence, 24 h; series mostly up to 38.3 µM
Screen size: about 410,000 compounds; about 6,400 (1.6%) were called active. About 20% were inconclusive and are not listed. Calls follow the shape of the dose curve; as a rule, active = well fitted inhibition curve with a large enough effect; inconclusive = small, poorly fitted or top-dose-only effect; inactive = no such curve, though single readings can be large or run the other way. For the sample, actives were picked, then their nearest neighbours and some compounds at random.
Hi there, use one of these labels in your reply, thanks! active, inactive

Record excerpt, results attached:
MOLECULE	TESTED_SYSTEM	CLASSIFICATION
O=c1c2ccccc2[nH]c(=S)n1-c1cccc(Cl)c1	Glucagon-like peptide 1 receptor (Homo sapiens)	inactive
COc1ccc(NC(=O)N2Cc3ccccc3-n3nncc3C2)cc1	Glucagon-like peptide 1 receptor (Homo sapiens)	inactive
COc1cc(-n2c(=S)[nH]c3ccc(C)cc3c2=O)c(Cl)cc1Cl	Glucagon-like peptide 1 receptor (Homo sapiens)	active

Prompt: Please let me know the test result on file for CC(=CCOc1ccc2ccc(=O)oc2c1)C1=CC(=O)C(C)(C)O1 .
Completion: active

Prompt: Test call, this molecule: C[C@]12CCCCC1=CC(=O)C1C2CC[C@@]2(C)C1C[C@@H](F)[C@@H]2O (stereo partly specified)
Completion: inactive

Prompt: Tell me the recorded outcome of this test for O=C1NC(=O)C(Cc2ccccc2)C(=O)N1 .
Completion: inactive

###

Target: Glucagon-like peptide 1 receptor (Homo sapiens) (UniProt P43220)
Sequence (P43220 whole entry, looked up): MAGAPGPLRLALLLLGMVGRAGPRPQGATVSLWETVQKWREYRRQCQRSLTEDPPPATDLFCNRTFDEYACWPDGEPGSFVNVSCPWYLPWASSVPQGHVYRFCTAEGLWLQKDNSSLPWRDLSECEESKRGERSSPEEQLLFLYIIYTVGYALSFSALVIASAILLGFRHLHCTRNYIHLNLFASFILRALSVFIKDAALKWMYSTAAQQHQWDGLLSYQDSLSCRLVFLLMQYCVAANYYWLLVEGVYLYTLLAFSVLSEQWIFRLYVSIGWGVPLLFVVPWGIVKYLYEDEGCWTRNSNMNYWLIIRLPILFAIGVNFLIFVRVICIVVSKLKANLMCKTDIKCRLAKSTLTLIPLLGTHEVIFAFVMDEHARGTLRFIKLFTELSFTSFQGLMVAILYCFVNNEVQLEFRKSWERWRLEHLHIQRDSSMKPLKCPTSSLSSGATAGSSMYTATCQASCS
Test: qHTS of GLP-1 Receptor Inverse Agonists (Inhibition Mode); also: nearly all actives have a fitted effect of over 55% in size
Details: HEK293 GLP-1R CRE-luciferase, luminescence, 24 h; series mostly up to 38.3 µM
Among all 410,000 compounds or so, about 6,400 (1.6%) were called active. Inconclusive results (about 20%) are left out. Calls follow the shape of the dose curve; as a rule, active = well fitted inhibition curve with a large enough effect; inconclusive = small, poorly fitted or top-dose-only effect; inactive = no such curve, though single readings can be large or run the other way. Many of the other results were omitted from the sample, so actives are more common in it than they were.
Pick one and only one: 1 (active), -1 (inactive)

Prompt: Query: recorded result category for CC12CCC3C(CCC4CC(=O)CCC43C)C1CC(=NO)C2=O (stereo not drawn) in this test
Completion: -1

Prompt: Assay outcome for O=C1NC(=O)C(CCOc2ccccc2)(CCc2ccccc2)C(=O)N1 : what was it?
Completion: -1

Prompt: Can you look up the reported call for C[C@H]1CN([C@@H](C)CO)C(=O)CCCn2nncc2CO[C@H]1CN(C)C(=O)Oc1cccc2ccccc12 for me?
Completion: -1

Prompt: Please share the test call associated with CCC(=O)OC(Cc1ccccc1)(c1ccccc1)C(C)CN(C)C (stereo not drawn) .
Completion: -1

Prompt: Hey, what did the test say about CC1CNCCN1c1ccc(Cl)cc1 (stereo not drawn) ?
Completion: -1

Prompt: Per the records of this test, what outcome belongs to c1ccc(N2Cc3ccccc3-n3nncc3C2)nc1 ?
Completion: -1

Prompt: Please indicate how the test categorized COc1cc(C(=O)N2Cc3ccc(Br)cc3-n3nncc3C2)cc(OC)c1OC .
Completion: -1

Prompt: Could you kindly confirm the outcome this assay logged for C[C@H]1CN([C@@H](C)CO)C(=O)CCCn2nncc2CO[C@H]1CN(C)C(=O)Oc1ccccc1 ?
Completion: -1

Prompt: What was the test verdict on O=c1c2ccccc2nc(/C=C/c2ccco2)n1-c1ccccc1O ?
Completion: 1

Prompt: What did the test return for O=Cc1cn(Cc2ccc(F)cc2Cl)c2ccccc12 ?
Completion: 1

Prompt: Identify the outcome logged in this assay for the molecule shown: CCCCOc1ccc(C(=O)N2CC(=O)Nc3ccc(Br)cc3C2c2ccc(F)cc2)cc1 (stereo not drawn)
Completion: 1

Prompt: What did this assay record as the result for O=c1c2ccccc2nc(CBr)n1-c1ccc(Cl)cc1 ?
Completion: -1

Prompt: Please let me know the test result on file for CC(=O)c1ccc(-c2ccc(Cn3c(C)nc4cc(N)c(C)nc43)cc2)cc1 .
Completion: -1

###

Biological target: Glucagon-like peptide 1 receptor (Homo sapiens) (UniProt P43220)
Experiment: qHTS of GLP-1 Receptor Inverse Agonists (Inhibition Mode); also: nearly all actives have a fitted effect of over 55% in size
Settings: HEK293 GLP-1R CRE-luciferase, luminescence, 24 h; series mostly up to 38.3 µM
About 6,400 (1.6%) of roughly 410,000 compounds were called active. Roughly 20% stayed inconclusive and do not appear here. Calls come from the whole dose curve; as a rule, active = well fitted inhibition curve with a large enough effect; inconclusive = small, poorly fitted or top-dose-only effect; inactive = no such curve, though single readings can be large or run the other way. This is one part of a sample in which actives are shown more often than they occur.
Bench note: report the call from TRUE (active), FALSE (inactive)

COMPOUND	CLASSIFICATION
CCN1C(=O)NC(=O)C2(CCCC2)C1=O	FALSE
C[C@]12CCC3C(CC[C@H]4[C@H](O)[C@H](O)CC[C@]34C)C1CC[C@@H]2O (stereo not given in full)	FALSE
Cc1ccsc1C(=O)C1CCCN(Cc2ccc(O)cc2)C1 (stereo not given)	FALSE
CC(=O)C1(O)CCC2C3CCC4=C(Cl)C(=O)CCC4(C)C3CCC21C (stereo not given)	FALSE

Consider the additional compound presented here.
Prompt: Test call, this compound: O=C1C2(Cl)C3(Cl)C4(Cl)C(Cl)(Cl)C5(Cl)C3(Cl)C1(Cl)C5(Cl)C24Cl (stereo not given)
Completion: TRUE

###

Target: Glucagon-like peptide 1 receptor (Homo sapiens)
Test: qHTS of GLP-1 Receptor Inverse Agonists (Inhibition Mode); also: nearly all actives have a fitted effect of over 55% in size
Details: HEK293 GLP-1R CRE-luciferase, luminescence, 24 h; series mostly up to 38.3 µM
The campaign covered roughly 410,000 compounds. About 6,400 (1.6%) were called active. Roughly 20% stayed inconclusive and do not appear here. Calls follow the shape of the dose curve; as a rule, active = well fitted inhibition curve with a large enough effect; inconclusive = small, poorly fitted or top-dose-only effect; inactive = no such curve, though single readings can be large or run the other way. The entries come from a sample that favours actives as a whole.
Give one outcome, nothing more. List: T (active), F (inactive)

Some entries whose results are on file:
MOLECULE	CLASSIFICATION
COc1ccc2c(c1)NP(=S)(c1ccccc1)N2 (stereo not given)	F
COC(=O)CN(CCCl)P1(=O)OCCCN1CCCl (stereo not given)	F
COC(=O)C1=C(c2ccccc2OCc2ccccc2)C[C@@H]2CC[C@H]1N2C(=O)NCc1ccc(OC)cc1	F

Prompt: I'd appreciate the recorded outcome for COC(=O)C1=C(c2ccc(OCc3ccccc3)cc2)C[C@@H]2CC[C@H]1N2C(=O)NCc1cccc(F)c1 from this test.
Completion: T

Prompt: Which outcome did this test record for the molecule Cc1ccc(OC(=O)N(C)C[C@@H]2OCc3cnnn3CCCC(=O)N([C@H](C)CO)C[C@@H]2C)cc1 ?
Completion: F

###

Target: Glucagon-like peptide 1 receptor (Homo sapiens) (UniProt P43220)
Assay: qHTS of GLP-1 Receptor Inverse Agonists (Inhibition Mode); also: nearly all actives have a fitted effect of over 55% in size
Details: HEK293 GLP-1R CRE-luciferase, luminescence, 24 h; series mostly up to 38.3 µM
In all, about 410,000 compounds went through this assay and about 6,400 (1.6%) were called active. Not shown: some 20% with an inconclusive outcome. The call rests on the fitted dose curve; in most records, active means well fitted inhibition curve with a large enough effect; inconclusive means small, poorly fitted or top-dose-only effect; inactive means no such curve, though single readings can be large or run the other way. This excerpt belongs to a sample that is enriched for actives.
Answer with one of the outcomes active, inactive

Worked cases, answers included:
COMPOUND	TESTED_SYSTEM	CLASSIFICATION
COC(=O)C1=C(c2cccc(OCc3ccccc3)c2)C[C@@H]2CC[C@H]1N2C(=O)NCc1ccc(Br)cc1	Glucagon-like peptide 1 receptor (Homo sapiens) (UniProt P43220)	active
CC1CC=CCC12C(=O)NC(=S)NC2=O (stereo not given)	Glucagon-like peptide 1 receptor (Homo sapiens) (UniProt P43220)	inactive

Please look at the following compound next.
Prompt: What call does the record list for COc1ccc(-c2nn(CCC#N)cc2C(=O)Nc2ccc(C(C)=O)cc2)cc1 ?
Completion: inactive

###

Molecular target: Glucagon-like peptide 1 receptor (Homo sapiens) (UniProt P43220)
Test: qHTS of GLP-1 Receptor Inverse Agonists (Inhibition Mode); also: nearly all actives have a fitted effect of over 55% in size
Conditions: HEK293 GLP-1R CRE-luciferase, luminescence, 24 h; series mostly up to 38.3 µM
Out of some 410,000 compounds screened, about 6,400 (1.6%) were called active. About 20% were inconclusive and are not listed. The call rests on the fitted dose curve; in most records, active means well fitted inhibition curve with a large enough effect; inconclusive means small, poorly fitted or top-dose-only effect; inactive means no such curve, though single readings can be large or run the other way. What follows is part of a selection rich in actives, with near analogues and random picks from the rest.
Form entry, call: pick from true (1) = active, false (0) = inactive

Solved cases below.
COMPOUND	CLASSIFICATION
COc1ccc(NC(=O)c2cn(CCC#N)nc2-c2ccc([N+](=O)[O-])cc2)cc1	false (0)
COC1=CC=C2[C@H]3Cc4ccc(OC)c5c4[C@@]2(CCN3C)C1O5 (some centres not stated)	false (0)
COC(=O)C1=C(c2ccc(F)cc2OCc2ccccc2)C[C@@H]2CC[C@H]1N2C(=O)NCc1ccc(Cl)cc1	false (0)
O=C(CCN1CCCCC1)NCC(=O)Nc1ccc(Br)cc1C(=O)c1ccccc1	false (0)
COC1C(O)C(C)OC(OC2CCC3(C=O)C(CCC4C3CCC3(C)C(C5=CC(=O)OC5)CCC43O)C2)C1O (configuration not stated)	false (0)

Prompt: Name the outcome recorded for O=C(NC1CCCCC1)N1Cc2cc(N3CCCCC3)ccc2-n2nncc2C1 in the assay.
Completion: false (0)

Prompt: Returns: the outcome recorded for COC(=O)C1=C(c2ccc(OCc3ccccc3)cc2)C[C@@H]2CC[C@H]1N2C(=O)NCc1ccc(Cl)cc1 in this assay.
Completion: false (0)

Prompt: Status in this test for O=C(COC(=O)c1ccccc1)Nc1ccc(Cl)cc1C(=O)c1ccccc1 ?
Completion: false (0)

Prompt: Per the records of this test, what outcome belongs to CC(C)CN1Cc2cc(N3CCCCC3)ccc2-n2nncc2C1 ?
Completion: false (0)

Prompt: Fill in: this test's call for COc1ccc(C(=O)C2CCCN(Cc3ccc(C)s3)C2)cc1OC (configuration not stated) is ___
Completion: false (0)

Prompt: For COC(=O)C1=C(c2ccc(-c3ccccc3)c(F)c2)C[C@@H]2CC[C@H]1N2C(=O)NCc1ccc(F)cc1 , which call appears in the assay record?
Completion: false (0)

Prompt: Please state the recorded outcome for this compound: COc1cccc(-c2nc3ccc(N4CCN(C)CC4)cc3[nH]2)c1
Completion: true (1)

All values here come from PubChem BioAssay AID624417.
